Entries and their inhibition at 10 μM values follow.
Target: hERG (human ether-a-go-go related gene potassium channel, KCNH2) (Homo sapiens)
Construct: expressed in transfected cells; host or cells: HEK293
Experiment: hERG channel whole-cell patch clamp (Ion Channel Activity Measurement)
Type: cell-based
Conditions: human, HEK293 cells expressing the human ERG potassium channel, pH 7.4, 10 μM test article, room temperature

Recorded inhibition at 10 μM, per entry:
| COMPOUND | inhibition at 10 μM |
| --- | --- |
| CCOCOc1ccc2ccccc2c1Cc1c(OCCN)ccc2ccccc12 | 75 to 100% |
| CCN(CC)CCOc1ccc2ccccc2c1Cc1c(O)c(C)cc2ccccc12 | 75 to 100% |
| Nc1ccc2ccccc2c1Cc1c(O)ccc2ccccc12 | < 25% |
| CCOCOc1cccc2c1C(=O)CCC2 | 50 to 75% |
| COc1cc2ccccc2c(Cc2c(O)c(OC)cc3ccccc23)c1O | < 25% |
| CN1CCC(COc2ccc3ccccc3c2Cc2c(O)ccc3ccccc23)C1 (centres unmarked) | 75 to 100% |
| O=C1Cc2ccccc2N1Cc1c(O)ccc2ccccc12 | < 25% |

Data request: Given the entry "Oc1ccc2ccccc2c1Cc1cccc2ccccc12" , report its measured inhibition at 10 μM.
Data returned: 75 to 100%

----------
Entries and their inhibition at 5 min, 10 μM values follow.
Molecular target: CaV1.2 (L-type voltage-dependent calcium channel; CACNA1C, CACNB2, CACNA2D1) (Homo sapiens, UniProt Q13936)
Construct: expressed in transfected cells; host or cells: CHO
Sequence (Q13936 1-2138 isoform Q13936-12): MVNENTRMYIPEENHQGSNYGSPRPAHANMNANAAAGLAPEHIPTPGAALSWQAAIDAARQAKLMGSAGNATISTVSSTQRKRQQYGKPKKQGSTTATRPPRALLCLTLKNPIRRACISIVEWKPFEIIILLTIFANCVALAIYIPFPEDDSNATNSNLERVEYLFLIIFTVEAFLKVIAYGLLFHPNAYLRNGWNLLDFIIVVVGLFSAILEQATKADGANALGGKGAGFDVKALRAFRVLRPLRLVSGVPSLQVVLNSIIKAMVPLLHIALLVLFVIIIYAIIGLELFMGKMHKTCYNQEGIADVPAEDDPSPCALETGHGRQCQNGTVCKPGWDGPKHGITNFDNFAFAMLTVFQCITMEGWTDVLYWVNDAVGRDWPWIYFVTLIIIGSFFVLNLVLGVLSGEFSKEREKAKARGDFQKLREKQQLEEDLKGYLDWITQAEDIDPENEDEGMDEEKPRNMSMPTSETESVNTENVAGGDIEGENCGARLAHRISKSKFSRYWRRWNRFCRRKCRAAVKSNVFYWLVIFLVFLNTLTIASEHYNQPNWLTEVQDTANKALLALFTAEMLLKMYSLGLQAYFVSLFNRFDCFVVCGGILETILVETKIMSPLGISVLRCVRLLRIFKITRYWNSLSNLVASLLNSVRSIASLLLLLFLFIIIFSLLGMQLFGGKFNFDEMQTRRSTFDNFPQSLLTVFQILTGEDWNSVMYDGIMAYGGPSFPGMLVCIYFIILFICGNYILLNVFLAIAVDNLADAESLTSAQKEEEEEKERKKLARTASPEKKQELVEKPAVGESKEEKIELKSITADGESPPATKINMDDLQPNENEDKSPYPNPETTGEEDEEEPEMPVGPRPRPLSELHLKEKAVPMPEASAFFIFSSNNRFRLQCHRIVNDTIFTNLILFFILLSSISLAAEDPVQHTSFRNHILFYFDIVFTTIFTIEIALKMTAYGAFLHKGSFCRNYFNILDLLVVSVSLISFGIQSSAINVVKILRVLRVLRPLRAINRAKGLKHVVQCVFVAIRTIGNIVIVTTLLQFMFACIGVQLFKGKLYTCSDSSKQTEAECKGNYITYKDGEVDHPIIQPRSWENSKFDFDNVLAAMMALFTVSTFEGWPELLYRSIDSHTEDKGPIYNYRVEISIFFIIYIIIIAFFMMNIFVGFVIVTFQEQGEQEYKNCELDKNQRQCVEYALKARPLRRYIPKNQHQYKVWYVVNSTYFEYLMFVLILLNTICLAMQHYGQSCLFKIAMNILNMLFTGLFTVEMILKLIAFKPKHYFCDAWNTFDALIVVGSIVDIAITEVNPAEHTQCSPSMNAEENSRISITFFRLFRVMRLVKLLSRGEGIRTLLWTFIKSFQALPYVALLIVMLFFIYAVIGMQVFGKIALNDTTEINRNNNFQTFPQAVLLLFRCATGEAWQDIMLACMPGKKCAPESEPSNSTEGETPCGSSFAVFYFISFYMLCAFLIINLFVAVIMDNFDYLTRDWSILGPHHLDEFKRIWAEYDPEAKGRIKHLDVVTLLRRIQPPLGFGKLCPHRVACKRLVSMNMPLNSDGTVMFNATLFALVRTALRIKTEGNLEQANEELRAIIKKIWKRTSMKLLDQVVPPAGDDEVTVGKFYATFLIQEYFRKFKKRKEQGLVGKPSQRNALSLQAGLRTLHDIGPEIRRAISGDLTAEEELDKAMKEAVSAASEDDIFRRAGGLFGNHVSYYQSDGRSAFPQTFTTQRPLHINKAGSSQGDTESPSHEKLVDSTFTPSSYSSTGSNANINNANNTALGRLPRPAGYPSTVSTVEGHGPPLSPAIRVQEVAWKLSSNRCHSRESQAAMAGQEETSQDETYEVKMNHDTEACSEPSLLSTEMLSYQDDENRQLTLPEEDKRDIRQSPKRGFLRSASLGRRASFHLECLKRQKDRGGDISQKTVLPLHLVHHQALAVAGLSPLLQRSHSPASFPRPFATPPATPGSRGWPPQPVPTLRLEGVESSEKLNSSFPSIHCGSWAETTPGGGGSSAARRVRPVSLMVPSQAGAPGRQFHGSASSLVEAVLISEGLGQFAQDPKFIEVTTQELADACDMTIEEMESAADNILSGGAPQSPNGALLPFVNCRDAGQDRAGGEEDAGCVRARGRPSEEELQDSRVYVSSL
Sequence (Q08289 1-605 isoform Q08289-2 partner): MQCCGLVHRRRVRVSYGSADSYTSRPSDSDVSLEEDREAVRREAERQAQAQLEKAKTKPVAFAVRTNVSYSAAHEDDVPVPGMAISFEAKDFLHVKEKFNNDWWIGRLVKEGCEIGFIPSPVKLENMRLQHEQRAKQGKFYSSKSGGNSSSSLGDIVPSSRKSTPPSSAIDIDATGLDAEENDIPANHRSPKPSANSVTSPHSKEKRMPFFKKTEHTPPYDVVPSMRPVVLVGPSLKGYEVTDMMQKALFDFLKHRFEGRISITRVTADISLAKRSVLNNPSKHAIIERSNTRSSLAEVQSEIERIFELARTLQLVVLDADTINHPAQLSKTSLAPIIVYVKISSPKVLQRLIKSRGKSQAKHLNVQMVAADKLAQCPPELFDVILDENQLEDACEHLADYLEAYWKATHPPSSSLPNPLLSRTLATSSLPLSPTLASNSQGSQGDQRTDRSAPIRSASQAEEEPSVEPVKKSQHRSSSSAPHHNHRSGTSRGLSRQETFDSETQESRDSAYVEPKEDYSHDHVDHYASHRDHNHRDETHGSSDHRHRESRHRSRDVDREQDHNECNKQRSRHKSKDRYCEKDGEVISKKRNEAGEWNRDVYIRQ
Sequence (P54289 25-1091 isoform P54289-2 partner limits assumed): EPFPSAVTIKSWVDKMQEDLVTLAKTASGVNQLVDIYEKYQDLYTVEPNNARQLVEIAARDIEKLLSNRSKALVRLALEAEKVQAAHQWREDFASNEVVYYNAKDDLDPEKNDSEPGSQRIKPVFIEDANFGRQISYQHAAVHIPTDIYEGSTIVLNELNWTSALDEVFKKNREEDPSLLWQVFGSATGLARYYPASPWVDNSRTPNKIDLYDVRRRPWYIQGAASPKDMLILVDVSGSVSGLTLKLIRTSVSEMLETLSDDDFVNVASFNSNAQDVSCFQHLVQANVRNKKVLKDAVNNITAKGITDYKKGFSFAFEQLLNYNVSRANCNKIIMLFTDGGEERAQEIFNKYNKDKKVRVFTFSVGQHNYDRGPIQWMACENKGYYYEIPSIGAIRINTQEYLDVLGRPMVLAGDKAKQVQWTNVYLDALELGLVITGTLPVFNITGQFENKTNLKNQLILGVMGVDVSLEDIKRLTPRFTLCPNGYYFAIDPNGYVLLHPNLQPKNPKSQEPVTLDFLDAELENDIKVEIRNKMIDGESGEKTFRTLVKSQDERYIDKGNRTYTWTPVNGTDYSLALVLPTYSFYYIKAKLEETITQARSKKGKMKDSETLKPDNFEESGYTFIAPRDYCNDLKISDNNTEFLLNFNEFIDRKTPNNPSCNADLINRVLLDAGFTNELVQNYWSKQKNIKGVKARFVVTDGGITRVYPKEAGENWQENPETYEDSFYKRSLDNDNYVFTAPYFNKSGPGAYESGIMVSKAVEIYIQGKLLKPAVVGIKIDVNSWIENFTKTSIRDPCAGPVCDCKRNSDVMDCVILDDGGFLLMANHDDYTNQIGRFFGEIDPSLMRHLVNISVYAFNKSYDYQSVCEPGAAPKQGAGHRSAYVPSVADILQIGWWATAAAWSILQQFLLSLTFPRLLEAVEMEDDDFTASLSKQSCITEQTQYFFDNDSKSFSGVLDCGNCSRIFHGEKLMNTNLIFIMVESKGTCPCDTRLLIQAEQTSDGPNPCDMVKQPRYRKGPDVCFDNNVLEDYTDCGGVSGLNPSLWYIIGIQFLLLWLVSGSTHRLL
Sequence (P54289 957-1103 partner limits assumed): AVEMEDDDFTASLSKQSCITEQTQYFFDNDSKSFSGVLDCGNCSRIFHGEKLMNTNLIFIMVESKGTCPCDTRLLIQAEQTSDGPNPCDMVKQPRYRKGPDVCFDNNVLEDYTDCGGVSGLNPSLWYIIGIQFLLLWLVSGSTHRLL
Assay: CaV1.2 channel whole-cell patch clamp (Ion Channel Activity Measurement)
Format: cell-based
Conditions: human, pH 7.4, 10 μM test article, room temperature, read-out: CaV 1.2 10 μM (ion-channel inhibition)
Protocol: • CHO cell line stably expressing human calcium channel, voltage-dependent, L type, • CACNA1C: cDNA strictly similar to GenBank accession number: NM_000719 • CACNB2: cDNA strictly similar to GenBank accession number: NM_000724 • CACNA2D1: cDNA strictly similar to GenBank accession number: NM_000722 Iks Channel Cell Line: […] Cav1.2 current was recorded under a holding potential at −80 mV and then depolarized to +10 mV for 0.3 seconds. […]

Recorded inhibition at 5 min, 10 μM, per entry:
| MOLECULE | inhibition at 5 min, 10 μM |
| --- | --- |
| CCOCOc1ccc2ccccc2c1Cc1c(OCCN)ccc2ccccc12 [Compound A244] | 25 to 50% |
| CC(C)(O)c1cc2ccccc2c(Cc2c(O)c(C(C)(C)O)cc3ccccc23)c1O [Compound A047] | 50 to 75% |
| CS(=O)(=O)Nc1cc(Cc2c(NS(C)(=O)=O)ccc3ccccc23)c2ccccc2c1 [Compound A024-2] | 25 to 50% |
| Oc1ccc2ccccc2c1Cc1c(O)ncc2ccccc12 [Compound A027] | 25 to 50% |

Then there is this molecule:
Data request: Given the entry O=C(c1c(O)ccc2ccccc12)c1c(O)ccc2ccccc12 [Compound A007, bis(2-hydroxynaphthalen-1-yl)methanone] , report its measured inhibition at 5 min, 10 μM.
Data returned: 50 to 75%

----------
Molecular target: hERG (human ether-a-go-go related gene potassium channel, KCNH2) (Homo sapiens, UniProt Q12809)
Construct: expressed in transfected cells; host or cells: HEK293
Assay: hERG channel whole-cell patch clamp (Ion Channel Activity Measurement)
Assay type: cell-based
Conditions: human, HEK293 cells expressing the human ERG potassium channel, pH 7.4, 10 μM test article, room temperature
Experimental: HEK293 cell line expressing the human ERG (ether-a-go-go related gene) potassium channel (Potassium voltage-gated channel subfamily H member 2). cDNA strictly similar to GenBank accession number: NM_000238 Cells expressing channels were cultured in medium supplemented with 20% FBS in HAM'S F12 culture dish. […] hERG current was recorded under a holding potential at −80 mV and then depolarized to 30 mV for 2.5 seconds to activate the hERG channel. […]
Entries and their inhibition at 10 μM values follow.

Recorded inhibition at 10 μM, per entry:
| MOLECULE | inhibition at 10 μM |
| --- | --- |
| Oc1ccc2ccccc2c1Cc1c(O)ccc2ccccc12 [Compound A001, 1,1′-methylenebis(naphthalen-2-ol)] | 75 to 100% |
| COc1ccc2ccccc2c1Cc1c(O)ccc2ccccc12 [Compound A014] | 75 to 100% |
| O=C(c1c(O)ccc2ccccc12)c1c(O)ccc2ccccc12 [Compound A007, bis(2-hydroxynaphthalen-1-yl)methanone] | 25 to 50% |
| Cc1ccc(O)c(Cc2c(O)ccc(C)c2C)c1C [Compound A017, 2,2′-methylenebis(3,4-dimethylphenol)] | 25 to 50% |
| Oc1ccc2c(c1Cc1c(O)ccc3ccccc13)CNCC2 [Compound A141] | 25 to 50% |
| Oc1ccc2c(c1Cc1c(O)ccc3c1CNCC3)CCCC2 [Compound A141-I-1] | < 25% |
| NC(=O)c1ccc2ccccc2c1Cc1c(C(N)=O)ccc2ccccc12 [Compound A101, 1,1′-methylenebis(2-naphthamide)] | 50 to 75% |
| CC(=O)N(c1c(O)ccc2ccccc12)c1c(O)ccc2ccccc12 [Compound A075] | < 25% |
| COc1ccc2ccccc2c1Cc1c(OCCN(CCO)CCO)ccc2ccccc12 [Compound A195] | 75 to 100% |
| Cc1cc2ccccc2c(Cc2c(O)ccc3ccccc23)c1O [Compound A031] | 50 to 75% |

Data request: Given the entry Cc1cc2ccccc2c(Cc2c(O)c(C)cc3ccccc23)c1O [Compound A032] , report its measured inhibition at 10 μM.
Data returned: < 25%

Data request: Given the entry Oc1cccc2c1C(c1c(O)ccc3ccccc13)=CC2 [Compound A078] , report its measured inhibition at 10 μM.
Data returned: < 25%

Data request: Given the entry CS(=O)(=O)Nc1ccc2ccccc2c1Cc1c(O)ccc2ccccc12 [Compound A025] , report its measured inhibition at 10 μM.
Data returned: 25 to 50%

Data request: Given the entry Oc1cccc2c1C(c1c(O)ccc3ccccc13)CCC2 (centres unmarked) [Compound A077] , report its measured inhibition at 10 μM.
Data returned: 50 to 75%

Data request: Given the entry CCN(CC)CCOc1ccc2ccccc2c1Cc1c(OCc2ccccc2)ccc2ccccc12 [Compound A290] , report its measured inhibition at 10 μM.
Data returned: 75 to 100%

Data request: Given the entry COc1ccc2ccccc2c1Nc1c([N+](=O)[O-])ccc2ccccc12 [Compound A196] , report its measured inhibition at 10 μM.
Data returned: < 25%

Data request: Given the entry Oc1ccc2ccccc2c1Cc1c(OCCN2CCOCC2)ccc2ccccc12 [Compound A130] , report its measured inhibition at 10 μM.
Data returned: 75 to 100%
